The reported measurements were obtained from ChEMBL document CHEMBL1121617.

Record form. Attribute: Fall. Fill in for each entry.
System: Rattus norvegicus
experiment.summary: The percent fall in systolic blood pressure at 1.5 / 4 h after peroral administration of 50 mg/kg in DOCA/saline hypertensive rats at 2 hr
Format: functional, Artery
reported.conditions: route oral
One number for each entry, in %.

[[record]]
compound = "O=C(NC(=O)c1cccs1)NC1CCN(CCCC(=O)c2ccccc2)CC1"
measurement_unit = "%"
observed_result = 30

[[record]]
compound = "O=C(NC(=O)c1ccccc1)NC1CCN(CCCC(=O)c2ccccc2)CC1"
measurement_unit = "%"
observed_result = 21

[[record]]
compound = "O=C(Nc1ccc(Cl)c(Cl)c1)NC1CCN(CCCC(=O)c2ccccc2)CC1"
measurement_unit = "%"
observed_result = 35


// input: 5 compounds below; output: Fall for each
1. O=C(NC(=O)c1ccccc1)NC1CCN(CC(=O)c2ccccc2)CC1
2. O=C(NC(=O)C1CCCCC1)NC1CCN(CCc2c[nH]c3ccccc23)CC1
3. O=C(NC(=O)c1ccccc1)NC1CCN(CC(O)c2ccccc2)CC1 (stereo not given)
4. O=C(Nc1ccccc1)NC1CCN(CC(O)C2COc3ccccc3O2)CC1 (stereo in doubt; 31)
5. N/C(S)=N/C1CCN(CCc2c[nH]c3ccccc23)CC1

1: -23; 2: 48; 3: 21; 4: 35; 5: 20

// input: 2 compounds below; output: Fall for each
1. CN(C(=O)NC(=O)c1ccccc1)C1CCN(CCc2c[nH]c3ccccc23)CC1
2. O=C(NC(=O)c1ccccc1)NC1CCN(CCCC(=O)c2c[nH]c3ccccc23)CC1

40
16
